- Experimental Target: p45 Metalloprotease (Fusarium oxysporum)
- Sequence (M1UZ70 245-632 C408Y): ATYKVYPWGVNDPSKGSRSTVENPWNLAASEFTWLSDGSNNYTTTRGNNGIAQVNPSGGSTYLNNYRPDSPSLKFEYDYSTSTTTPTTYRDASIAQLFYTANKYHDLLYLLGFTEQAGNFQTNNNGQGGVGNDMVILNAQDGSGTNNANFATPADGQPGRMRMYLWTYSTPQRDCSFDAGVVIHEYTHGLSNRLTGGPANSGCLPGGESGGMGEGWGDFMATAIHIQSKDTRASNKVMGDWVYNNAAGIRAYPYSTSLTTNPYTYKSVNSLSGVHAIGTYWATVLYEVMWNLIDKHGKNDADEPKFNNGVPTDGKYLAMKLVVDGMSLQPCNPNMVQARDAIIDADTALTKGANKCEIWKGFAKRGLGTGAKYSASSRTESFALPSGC
- Experimental Protocol: Inhibitor analysis of the p45 metalloprotease
- Type: biochemical
- Set-up: precursor 632 aa (18 signal, 226 pro); native or A. oryzae-expressed with same N-terminus
- Particulars: read-out: Inhibition Constant (Ki), p45 Maturase
Measurement Label: pKi
// pKi is dimensionless: -log10 of concentration (M)

Measured pKi of `[Cl][Cd][Cl]` : 4.17

* * *

- Experimental Target: neutral metalloprotease from Bacillus stearothermophilus (Bacillus stearothermophilus)
- Experimental Protocol: enzyme inhibition, kinetic analysis of B.s. thermolysin activity
pKi: −log10 of the molar value.
Measurement Label: pKi

Measured pKi of synthetic pentapeptide pyroGlu-Glu-Ile-Pro-Asn-COOH : < 2.30
